target.of.assay: SENP1 (Homo sapiens (Human), UniProt Q9P0U3)
Sequence (Q9P0U3 419-644): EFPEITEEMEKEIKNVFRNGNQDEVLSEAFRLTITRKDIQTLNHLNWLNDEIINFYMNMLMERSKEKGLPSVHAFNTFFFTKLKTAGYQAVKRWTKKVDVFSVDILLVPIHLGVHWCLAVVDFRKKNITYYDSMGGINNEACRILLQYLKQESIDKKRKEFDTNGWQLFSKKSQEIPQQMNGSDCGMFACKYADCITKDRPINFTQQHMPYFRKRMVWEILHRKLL
assay.remarks: SUMO cleavage assay (gel-based), SENP1, SUMO-1 precursor YSE substrate
Type: biochemical
assay.conditions: cleavage of SUMO-1 precursor (YSE), read-out: IC50 (μM)-SUMO1 SENP1
measurement.name: IC50

Given Cc1cc(N)ccc1/N=N/c1cc(S(=O)(=O)O)c2cccc(S(=O)(=O)O)c2c1.[Na+].[Na+] , state its recorded IC50.
> 60 µM

====

target.of.assay: SENP7 (Homo sapiens (Human), UniProt Q9BQF6)
Sequence (Q9BQF6 760-1050): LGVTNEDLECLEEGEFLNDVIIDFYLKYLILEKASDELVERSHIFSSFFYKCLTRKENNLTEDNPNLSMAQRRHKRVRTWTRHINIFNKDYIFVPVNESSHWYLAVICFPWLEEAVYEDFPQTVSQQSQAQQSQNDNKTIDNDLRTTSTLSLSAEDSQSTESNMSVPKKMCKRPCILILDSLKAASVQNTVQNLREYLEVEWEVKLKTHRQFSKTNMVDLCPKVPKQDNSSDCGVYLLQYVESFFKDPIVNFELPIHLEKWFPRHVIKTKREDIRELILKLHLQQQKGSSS
measurement.name: IC50 (nM)
Answer with a number only, understood to be in nM.

Kindly state the measured IC50 obtained for Cc1cc(N)ccc1/N=N/c1cc(S(=O)(=O)O)c2cccc(S(=O)(=O)O)c2c1.[Na+].[Na+] [SPI-07] with SENP7 (Homo sapiens (Human), UniProt Q9BQF6).
1900

====

target.of.assay: SENP1 (Homo sapiens (Human))
assay.remarks: DUB-Glo bioluminescent assay, SENP1
Format: biochemical
assay.conditions: DUB-Glo substrate
measurement.name: IC50

Given Cc1cc(N)ccc1/N=N/c1cc(S(=O)(=O)O)c2cccc(S(=O)(=O)O)c2c1.[Na+].[Na+] [SPI-07] , state its recorded IC50.
> 60 µM

====

target.of.assay: SENP1 (Homo sapiens (Human), UniProt Q9P0U3)
assay.remarks: SUMO cleavage assay (gel-based), SENP1, SUMO-2 precursor YSE substrate
Type: biochemical
assay.conditions: cleavage of SUMO-2 precursor (YSE), gel-based; read-out: IC50 (μM)-SUMO2 SENP1
measurement.name: IC50 (µM)
Answer with a number only, understood to be in µM.

Given Cc1cc(N)ccc1/N=N/c1cc(S(=O)(=O)O)c2cccc(S(=O)(=O)O)c2c1.[Na+].[Na+] , state its recorded IC50.
17.5

====

target.of.assay: SENP2 (Homo sapiens (Human))
Sequence (Q9HC62 364-589): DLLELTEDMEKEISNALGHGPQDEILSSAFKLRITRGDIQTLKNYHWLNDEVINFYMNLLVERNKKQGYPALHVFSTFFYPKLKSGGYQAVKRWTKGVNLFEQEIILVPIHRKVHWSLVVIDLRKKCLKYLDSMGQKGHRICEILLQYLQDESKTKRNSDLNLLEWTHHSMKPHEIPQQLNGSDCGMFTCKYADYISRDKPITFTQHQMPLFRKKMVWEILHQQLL
assay.remarks: SUMO cleavage assay (gel-based), SENP2, SUMO-2 precursor YSE substrate
Type: biochemical
assay.conditions: cleavage of SUMO-2 precursor (YSE), read-out: IC50 (μM)-SUMO2 SENP2
measurement.name: IC50 (µM)
Answer with a number only, understood to be in µM.

Given Cc1cc(N)ccc1/N=N/c1cc(S(=O)(=O)O)c2cccc(S(=O)(=O)O)c2c1.[Na+].[Na+] [SPI-07] , state its recorded IC50.
28.1
